Value source: ChEMBL document CHEMBL3885881

organism: Rattus norvegicus; experiment: DrugMatrix - Regimen: Daily Repeat; format: toxicity, organism-based, Sprague-Dawley; parameters: regimen Daily Repeat, gender Male, age 6-8 weeks; conditions: in vivo, po, 1500 mg/kg, 120 h, tissue Blood, route oral GAVAGE, dose level High, time 5 day, vehicle .5 % CMC
I'd be grateful if you could share measured LEUKOCYTE COUNT for these entries.
Just the number in x10E3/uL, nothing appended.

Entry CCOC(=O)[C@H](CCc1ccccc1)N[C@@H](C)C(=O)N1CCC[C@H]1C(=O)O has what LEUKOCYTE COUNT?
16.6

Entry Nc1nc2c(c(=O)[nH]1)N(C=O)C(CNc1ccc(C(=O)N[C@@H](CCC(=O)O)C(=O)O)cc1)CN2 (stereo not given in full) [LEUCOVORIN] has what LEUKOCYTE COUNT?
15.53

Entry O=c1cc(-c2ccccc2)oc2ccc3ccccc3c12 [BETA-NAPHTHOFLAVONE] has what LEUKOCYTE COUNT?
11.39

Entry C[C@@H](O)[C@H]1C(=O)N2C(C(=O)O)=C(S[C@@H]3CN[C@H](C(=O)N(C)C)C3)[C@H](C)[C@H]12 [MEROPENEM] has what LEUKOCYTE COUNT?
14.73

Entry CC(C)(Sc1cc(C(C)(C)C)c(O)c(C(C)(C)C)c1)Sc1cc(C(C)(C)C)c(O)c(C(C)(C)C)c1 [PROBUCOL] has what LEUKOCYTE COUNT?
12.3

* * *

I'd be grateful if you could share measured HEMATOCRIT for these entries.
species: Rattus norvegicus; test: DrugMatrix - Regimen: Daily Repeat; type: toxicity, organism-based, Sprague-Dawley; parameters: regimen Daily Repeat, gender Male, age 6-8 weeks; details: in vivo, po, 100 mg/kg, 120 h, tissue Blood, route oral GAVAGE, dose level Low, time 5 day, vehicle .5 % CMC
Just the number in %, nothing appended.

Entry CC[C@]1(O)CC[C@H]2[C@@H]3CCC4=CCCC[C@@H]4[C@H]3CC[C@@]21C has what HEMATOCRIT?
44.83

Entry Nc1nc2c(c(=O)[nH]1)N(C=O)C(CNc1ccc(C(=O)N[C@@H](CCC(=O)O)C(=O)O)cc1)CN2 (some centres undefined) [LEUCOVORIN] has what HEMATOCRIT?
36.17

Entry CC=Cc1ccc(O)c(OC)c1 [ISOEUGENOL] has what HEMATOCRIT?
36

Entry C#C[C@]1(O)CC[C@H]2[C@@H]3CCC4=Cc5oncc5C[C@]4(C)[C@H]3CC[C@@]21C [DANAZOL] has what HEMATOCRIT?
33.67

* * *

species: Rattus norvegicus; assay: DrugMatrix - Regimen: Daily Repeat; assay type: toxicity, organism-based, Sprague-Dawley; design: regimen Daily Repeat, gender Male, age 6-8 weeks; settings: in vivo, po, 0 mg/kg, 72 h, tissue Plasma, route oral GAVAGE, dose level Control, time 3 day, […]
# label = Met if CREATININE < 0.2 mg/dL else Not met

I'd appreciate it if you could check whether CC(=O)Nc1nnc(S(N)(=O)=O)s1 [ACETAZOLAMIDE] has CREATININE smaller than 0.2 mg/dL.
Met

I'd appreciate it if you could check whether CC(CCc1ccc(O)cc1)NCCc1ccc(O)c(O)c1 (stereo unspecified) has CREATININE smaller than 0.2 mg/dL.
Not met

I'd appreciate it if you could check whether CN(CCOc1ccc(CC2SC(=O)NC2=O)cc1)c1ccccn1 (stereo unspecified) has CREATININE smaller than 0.2 mg/dL.
Met

I'd appreciate it if you could check whether CC[C@H](C)C(=O)O[C@H]1C[C@H](O)C=C2C=C[C@H](C)[C@H](CC[C@@H](O)C[C@@H](O)CC(=O)O)[C@H]21 has CREATININE smaller than 0.2 mg/dL.
Met

I'd appreciate it if you could check whether CC[C@H](C)C(=O)O[C@H]1C[C@@H](C)C=C2C=C[C@H](C)[C@H](CC[C@@H]3C[C@@H](O)CC(=O)O3)[C@H]21 has CREATININE smaller than 0.2 mg/dL.
Not met

I'd appreciate it if you could check whether NC[C@@H]1O[C@H](O[C@H]2[C@@H](O)[C@H](O[C@@H]3[C@@H](O)[C@H](N)C[C@H](N)[C@H]3O[C@H]3O[C@H](CN)[C@@H](O)[C@H](O)[C@H]3N)O[C@@H]2CO)[C@H](N)[C@@H](O)[C@@H]1O has CREATININE smaller than 0.2 mg/dL.
Met

I'd appreciate it if you could check whether OCCN1CCN(CCCN2c3ccccc3Sc3ccc(C(F)(F)F)cc32)CC1 has CREATININE smaller than 0.2 mg/dL.
Met

I'd appreciate it if you could check whether CCn1cc(C(=O)O)c(=O)c2cc(F)c(N3CCNCC3)nc21 has CREATININE smaller than 0.2 mg/dL.
Not met

I'd appreciate it if you could check whether C#C[C@]1(O)CC[C@H]2[C@@H]3CCc4cc(O)ccc4[C@H]3CC[C@@]21C has CREATININE smaller than 0.2 mg/dL.
Not met

I'd appreciate it if you could check whether COc1ncnc(NS(=O)(=O)c2ccc(N)cc2)c1OC has CREATININE smaller than 0.2 mg/dL.
Met

* * *

I'd be grateful if you could share measured ALANINE AMINOTRANSFERASE for these entries.
species on record: Rattus norvegicus; experiment: DrugMatrix - Regimen: Daily Repeat; type: toxicity, organism-based, Sprague-Dawley; design: regimen Daily Repeat, gender Male, age 6-8 weeks; conditions: in vivo, po, 0 mg/kg, 72 h, tissue Plasma, route oral GAVAGE, dose level Control, time 3 day, vehicle 100 % SALINE
Just the number in u/L, nothing appended.

Entry Cc1cc(CC(=O)O)n(C)c1C(=O)c1ccc(Cl)cc1 [ZOMEPIRAC] has what ALANINE AMINOTRANSFERASE?
52.83

Entry CC(=O)OCC(CCn1cnc2cnc(N)nc21)COC(C)=O has what ALANINE AMINOTRANSFERASE?
50.67

Entry CCCc1nn(C)c2c(=O)[nH]c(-c3cc(S(=O)(=O)N4CCN(C)CC4)ccc3OCC)nc12 has what ALANINE AMINOTRANSFERASE?
50.67

Entry Oc1ccccc1O has what ALANINE AMINOTRANSFERASE?
52.83

* * *

organism: Rattus norvegicus; experiment: DrugMatrix - Regimen: Daily Repeat; format: toxicity, organism-based, Sprague-Dawley; design: regimen Daily Repeat, gender Male, age 6-8 weeks; details: in vivo, po, 100 mg/kg, 72 h, tissue Blood, route oral GAVAGE, dose level Low, time 3 day, vehicle .5 % CMC
property: PLATELET COUNT
# include the unit after the value

Entry C#C[C@]1(O)CC[C@H]2[C@@H]3CCC4=Cc5oncc5C[C@]4(C)[C@H]3CC[C@@]21C has what PLATELET COUNT?
1192.67 x10E3/uL

Entry CC=Cc1ccc(O)c(OC)c1 has what PLATELET COUNT?
1262 x10E3/uL

Entry CC[C@]1(O)CC[C@H]2[C@@H]3CCC4=CCCC[C@@H]4[C@H]3CC[C@@]21C has what PLATELET COUNT?
1395 x10E3/uL

Entry Nc1nc2c(c(=O)[nH]1)N(C=O)C(CNc1ccc(C(=O)N[C@@H](CCC(=O)O)C(=O)O)cc1)CN2 (some centres undefined) has what PLATELET COUNT?
1244.67 x10E3/uL

* * *

organism: Rattus norvegicus; assay: DrugMatrix - Regimen: Daily Repeat; assay type: toxicity, organism-based, Sprague-Dawley; set-up: regimen Daily Repeat, gender Male, age 6-8 weeks; conditions: in vivo, po, 0 mg/kg, 120 h, tissue Plasma, route oral GAVAGE, dose level Control, time 5 day, vehicle 100 % SALINE
I'd be grateful if you could share measured GLUCOSE for these entries.
Just the number in mg/dL, nothing appended.

Entry Oc1ccccc1O has what GLUCOSE?
124.33

Entry CC(=O)OCC(CCn1cnc2cnc(N)nc21)COC(C)=O has what GLUCOSE?
151

Entry Cc1cc(CC(=O)O)n(C)c1C(=O)c1ccc(Cl)cc1 [ZOMEPIRAC] has what GLUCOSE?
124.33

Entry CCCc1nn(C)c2c(=O)[nH]c(-c3cc(S(=O)(=O)N4CCN(C)CC4)ccc3OCC)nc12 has what GLUCOSE?
151

* * *

I'd be grateful if you could share measured MEAN CORPUSCULAR VOLUME for these entries.
species: Rattus norvegicus; test: DrugMatrix - Regimen: Daily Repeat; type: toxicity, organism-based, Sprague-Dawley; parameters: regimen Daily Repeat, gender Male, age 6-8 weeks; conditions: in vivo, po, 0 mg/kg, 120 h, tissue Blood, route oral GAVAGE, dose level Control, time 5 day, vehicle .5 % CMC
Just the number in fL, nothing appended.

Entry CN1C(=O)CN=C(c2ccccc2)c2cc(Cl)ccc21 [DIAZEPAM] has what MEAN CORPUSCULAR VOLUME?
61.82

Entry CC(=O)O[C@]1(C(C)=O)CC[C@H]2[C@@H]3C=C(Cl)C4=CC(=O)[C@@H]5C[C@@H]5[C@]4(C)[C@H]3CC[C@@]21C [CYPROTERONE ACETATE] has what MEAN CORPUSCULAR VOLUME?
63.67

Entry C[C@@H](O)[C@H]1C(=O)N2C(C(=O)O)=C(S[C@@H]3CN[C@H](C(=O)N(C)C)C3)[C@H](C)[C@H]12 [MEROPENEM] has what MEAN CORPUSCULAR VOLUME?
61.92

Entry CCCCC1C(=O)N(c2ccccc2)N(c2ccccc2)C1=O [PHENYLBUTAZONE] has what MEAN CORPUSCULAR VOLUME?
62.58

Entry CC[C@]1(O)CC[C@H]2[C@@H]3CCC4=CCCC[C@@H]4[C@H]3CC[C@@]21C has what MEAN CORPUSCULAR VOLUME?
64.6

Entry Cc1cnc(C(=O)NCCc2ccc(S(=O)(=O)NC(=O)NC3CCCCC3)cc2)cn1 [GLIPIZIDE] has what MEAN CORPUSCULAR VOLUME?
63.67

Entry COc1ccc(/C=C/C(=O)Nc2ccccc2C(=O)O)cc1OC has what MEAN CORPUSCULAR VOLUME?
61.92

Entry C[C@@H]1CC[C@H]2[C@@H](C)C(=O)O[C@@H]3O[C@@]4(C)CC[C@@H]1[C@]32OO4 [ARTEMISININ] has what MEAN CORPUSCULAR VOLUME?
61.53
